- Test system: MCF7 breast
- protocol notes: NCI-60 one-dose screen, 48 h
- test settings: 10 µM unless noted
This is part of a sample that, as a whole, favours compounds with a hit. Of some 83,000 tested, about 20% had one in any assay. The source made the active and inactive calls. The calls were made as follows: active = growth percent below 10; inactive = the rest.
Form entry, call: pick from active, inactive

1) COc1ccc(C(=O)CSc2nccc(Nc3ccc(C(=O)O)cc3)n2)cc1; inactive

Q. Fill in: this test's call for O=C1/C(=C\c2cccn2Cc2ccccc2)c2ccccc2N1c1c(Cl)cccc1Cl is ___
A. active

Q. Thanks! And CSc1nc2sc3cc(Cl)c(Cl)cc3n2c(=N)c1C#N ?
A. inactive

Q. Thanks! And C=CCCCCCCCCC(=O)OC(C)C ?
A. inactive

Q. Thanks! And Cc1cnc(N)nc1OCC(C)(C)CNC(=O)c1cccc(-c2ccc(S(=O)(=O)Nc3ccc4c(c3)N(C(=O)C3CC3)CCC4)cc2)c1 ?
A. inactive

----------
- System: MALME-3M melanoma
- protocol notes: NCI-60 one-dose screen, 48 h
- test settings: 10 µM unless noted
The panel holds about 83,000 compounds, 20% with a hit somewhere; the sample as a whole holds those more often. The source made the active and inactive calls. How the source made its calls: active means growth percent below 10; inactive means the rest.
Form entry, call: pick from active, inactive

Study these solved cases before continuing.
1) O=C(O)c1ccccc1C(F)(F)F; inactive
2) CCOC(=O)CCC[P+](c1ccccc1)(c1ccccc1)c1ccccc1; inactive
3) CCCCCCSc1ncnc2nc[nH]c12; inactive

Q. Fill in: this test's call for COc1cc2c(c(OC)c1OC)-c1ccc(NNC(N)=S)c(=O)cc1[C@@H](NC(C)=O)CC2 is ___
A. inactive

Q. Thanks! And Cc1ccc(Cn2c(O)c(N=NC(=O)c3ccc(S(N)(=O)=O)cc3)c3ccccc32)cc1 ?
A. inactive

Q. Thanks! And C=C(C)[C@@H]1CC[C@]2(C(N)=O)CC[C@]3(C)[C@H](CC[C@@H]4[C@@]5(C)CC[C@H](O)C(C)(C)[C@@H]5CC[C@]43C)[C@@H]12 ?
A. active

Q. Thanks! And O=C(Nc1ccc(Oc2ccc(F)cc2)c(Cl)c1)c1cccnn1 ?
A. inactive

Q. Thanks! And O=C(NCCCCCCCNC(=O)OCc1ccc2c(Cl)cc(Cl)c(O)c2n1)OCc1ccc2c(Cl)cc(Cl)c(O)c2n1 ?
A. active

Q. Thanks! And Clc1ccc(/C=N/Nc2nc3ccccc3s2)c(Cl)c1 ?
A. inactive

Q. Thanks! And CC1(C)NCCC[C@]2(C)[C@H]3C=CC4=C5C[C@](C)(CO)CC[C@]5(C)CC[C@@]4(C)[C@]3(C)CC[C@@H]12 ?
A. active

Q. Thanks! And O=C(Nc1ccc(F)cc1)c1ccccc1 ?
A. inactive

Q. Thanks! And COc1ccc(-c2cc(-c3ccc(Cl)cc3)nc(SCCCCCCC(=O)NO)n2)cc1 ?
A. inactive

----------
- System: PC-3 prostate
- protocol notes: NCI-60 one-dose screen, 48 h
- test settings: 10 µM unless noted
The panel holds about 83,000 compounds, 20% with a hit somewhere; the sample as a whole holds those more often. Activity calls are given as the source filed them. How the source made its calls: active means growth percent below 10; inactive means the rest.
Form entry, call: pick from 1 for active, -1 for inactive

1) O=C(Nc1cccnc1)c1ccc2ccc3ccc(C(=O)Nc4cccnc4)nc3c2n1; -1

Q. Fill in: this test's call for COc1cc(-c2nc(SCCC(C)C)nc(Nc3ccc(S(N)(=O)=O)cc3)c2C#N)cc(OC)c1OC is ___
A. 1

Q. Thanks! And O=C(Nc1cccc(C2=NCCN2)c1)c1cccc(C(=O)Nc2cccc(C3=NCCN3)c2)c1 ?
A. -1

Q. Thanks! And C=C(C)[C@@H]1CC[C@]2(C)[C@H](C(=O)C=C3[C@@H]4C[C@](C)(C(=O)N5CCN(C)CC5)CC[C@]4(C)CC[C@]32C)[C@@]1(C)CCC#N ?
A. 1

----------
- Tested on: KM12 colon
- protocol notes: NCI-60 one-dose screen, 48 h (100 = growth as untreated, 0 = no growth, -100 = all killed)
- test settings: 10 µM unless noted
About 83,000 compounds went through this panel and 20% of them were active in at least one assay; those are over-represented in the sample as a whole.
The label true (1) is reserved for growth strictly under 40%; false (0) covers values equal to or above it.

Study these solved cases before continuing.
1. O=C(Nc1cc(F)cc2cccnc12)c1cnc(N2CCNCC2)cn1; false (0)
2. CCNc1cc2c(cc1Br)-c1ccccc1C2=O; false (0)
3. COc1ccc2c(c1)C(C)Cc1c(ncnc1-n1cnc3ccccc31)N2C (stereo not given); true (1)

Q. Bench note: check whether c1cc2ccc3cc2cc1CNCCN1CCNCc2ccc4ccc(cc4c2)CNCCN(CCNC3)CCNCc2ccc3ccc(cc3c2)CNCC1 shows growth below 40%
A. true (1)

Q. Thanks! And CC(C)OC(=O)Nc1cc(F)c(F)cc1F ?
A. false (0)

Q. Thanks! And CC(C)c1ccc(/C=N/N=C(N)N)cc1 ?
A. true (1)

Q. Thanks! And CCN(CC)c1ccc2cc(C(Nc3ccc(Cl)cc3)c3nnnn3C(C)(C)C)c(=O)oc2c1 (stereo not given) ?
A. false (0)

Q. Thanks! And CCOC(=O)c1c[nH]c2cc(OCC3CC3)c(OCC3CC3)cc2c1=O ?
A. false (0)

Q. Thanks! And C=CCc1nc2ccccc2s1 ?
A. false (0)

----------
- System: K-562 leukemia
- protocol notes: NCI-60 one-dose screen, 48 h
- test settings: 10 µM unless noted
- Experimental: Cells are grown in 96 well plates and exposed to the test compound for 48 hours. Compounds are tested at a single concentration, which is 10^-5 M for most compounds. The reported endpoint is percent growth (GI% or GIPRCNT), where numbers from 0 - 100% represent growth inhibition, and numbers from -100% - 0 represent cell death. For example, a value of 40 represents 60% growth inhibition. A value of 0 means no net growth occurred over the course of the experiment. […]
About 83,000 compounds went through this panel and 20% of them were active in at least one assay; those are over-represented in the sample as a whole. Calls of active or inactive are those of the source. The calls were made as follows: active = growth percent below 10; inactive = the rest.
Form entry, call: pick from active, inactive

Study these solved cases before continuing.
1) COc1cc2c(c(Br)c1N)-c1cc(Br)c(N)cc1C2=O; inactive
2) CCN(CC)c1ccc(/C=C/c2ccc3cc(C)ccc3[n+]2CC)cc1; active
3) CCCCCN(CCCCC)CCCCCCCCN1CCCc2ccccc21; active
4) CCOC(=O)c1nn(C2CCCCO2)c2ccc(NC(=O)CN3CCOCC3)cc12 (stereo unspecified); inactive
5) CCOc1cc(NC(=O)c2ccccc2)c(OCC)cc1N; inactive

Q. Fill in: this test's call for NC(=S)Cc1ccccc1 is ___
A. inactive

Q. Thanks! And COc1cc(-c2cc(-c3ccc(Nc4ncnc5cc(Cl)ccc45)cc3)nc(N3CCCCC3)n2)cc(OC)c1OC ?
A. inactive

Q. Thanks! And C[C@]12CCc3c(ccc4cc(O)ccc34)[C@@H]1CC[C@H]2O ?
A. inactive

Q. Thanks! And COc1cc(NCc2ccccc2O)c2ncccc2c1 ?
A. inactive

Q. Thanks! And Fc1ccc(NC(=S)c2ccccc2)cc1 ?
A. inactive

Q. Thanks! And Cn1cc(-c2nnc(-c3cn(C)c4ncccc34)o2)c2ccccc21 ?
A. inactive

----------
- Tested on: UO-31 renal
- protocol notes: NCI-60 one-dose screen, 48 h
- test settings: 10 µM unless noted
This is part of a sample that, as a whole, favours compounds with a hit. Of some 83,000 tested, about 20% had one in any assay. Active and inactive are the calls of the source. How the source made its calls: active means growth percent below 10; inactive means the rest.
Form entry, call: pick from true (1) for active, false (0) for inactive

1. N#C/C(=C(/O)CCCO)c1nc2ccccc2c(=O)[nH]1; false (0)
2. COc1ccc2c(c1)C(C)Cc1c(Cl)ncnc1N2C (stereo not given); false (0)
3. COc1ccc(-c2nc3ccccn3c2/C=C/C(=O)c2cc(OC)c(OC)c(OC)c2)cc1OC; false (0)
4. Fc1cc2[nH]ncc2c2c3c(c(-c4cn[nH]c4C(F)(F)F)nc12)C1CCC3C1 (stereo not given); true (1)

Please turn your attention to the following entry.
Q. Fill in: this test's call for COc1ccc(C2CC(c3cc(OC)c(OC)c(OC)c3)=NN2C(C)=O)cc1OCC(=O)Nc1nc2ccc(C(F)(F)F)cc2s1 (stereo not given) is ___
A. false (0)

----------
- System: RPMI-8226 leukemia
- protocol notes: NCI-60 one-dose screen, 48 h
- test settings: 10 µM unless noted
This is part of a sample that, as a whole, favours compounds with a hit. Of some 83,000 tested, about 20% had one in any assay. Active and inactive are the calls of the source. Rule for the calls: active = growth percent below 10; inactive = the rest.
Form entry, call: pick from yes (1) (active), no (0) (inactive)

Study these solved cases before continuing.
1. CSc1nc2sc3cc(Cl)c(Cl)cc3n2c(=N)c1C#N; no (0)
2. Cc1cc(C)nc(SCC(=O)Nc2cccc(N=Cc3ccccc3O)c2)n1; no (0)
3. CC1Cc2ccc(OCCN(C)C)cc2C1=O (stereo not drawn); no (0)
4. C#C[C@]1(O)CC[C@H]2[C@@H]3CC=C4c5nc(N)sc5CC[C@]4(C)[C@H]3CC[C@@]21C; yes (1)
5. CS(=O)(=O)c1cccnn1; no (0)
6. Cn1cc(-c2noc(-c3cn(C)c4ncc(F)cc34)n2)c2cc(Br)ccc21; no (0)

Q. Fill in: this test's call for C#C[C@]1(O)CC[C@H]2[C@@H]3CC=C4c5nc(Nc6ccccn6)sc5CC[C@]4(C)[C@H]3CC[C@@]21C is ___
A. yes (1)

Q. Thanks! And O=C(C[n+]1ccn(CC(OCc2ccc(Cl)cc2Cl)c2ccc(Cl)cc2Cl)c1)c1ccc(F)cc1 (stereo not drawn) ?
A. yes (1)

Q. Thanks! And C=C(C)[C@@H]1CC[C@]2(C(=O)NCCNCCNC(=O)OC(C)(C)C)CC[C@]3(C)[C@H](CC[C@@H]4[C@@]5(C)CCC(=O)C(C)(C)[C@@H]5CC[C@]43C)[C@@H]12 ?
A. no (0)

Q. Thanks! And O=C(Nc1cc(F)cc2cccnc12)c1cnc(N2CCNCC2)cn1 ?
A. no (0)

Q. Thanks! And CC1(C)C(=O)/C(=C\c2ccco2)C[C@]2(C)[C@H]3CC=C4[C@@H]5C[C@](C)(C(=O)O)CC[C@]5(C)CC[C@@]4(C)[C@]3(C)CC[C@@H]12 ?
A. yes (1)

Q. Thanks! And CC1=CC[C@@H]2C(C)(C)C(=O)CC[C@@]2(C)[C@@H]1COc1ccc2ccc(=O)oc2c1 ?
A. no (0)

Q. Thanks! And COc1cc(Cl)cc(-c2nn(C(=O)NS(=O)(=O)c3ccccc3)cc2-c2ccncc2)c1 ?
A. no (0)

Q. Thanks! And COc1ncc(-c2ccc3nc(N)n(-c4ccccc4C(F)(F)F)c(=O)c3c2)cc1S(=O)(=O)Nc1ccc(F)cc1F ?
A. yes (1)

Q. Thanks! And O=C(Nc1ccc(C(=O)/C=C/c2ccc(N3CCOCC3)cc2)cc1)Nc1ccc([N+](=O)[O-])cc1 ?
A. no (0)

Q. Thanks! And Fc1ccc(NC(=S)c2ccccc2)cc1 ?
A. no (0)

Q. Thanks! And C=CCCCCCCCCC(=O)OC(C)C ?
A. no (0)

Q. Thanks! And CCCCCCCCCN(CCCCCCCCC)C(C)C(=O)c1ccc2cc(Br)c3ccccc3c2c1 (stereo not drawn) ?
A. no (0)

Q. Thanks! And CCN(CC)c1ccc2cc(C(Nc3ccc(C)cc3)c3nnnn3C(C)(C)C)c(=O)oc2c1 (stereo not drawn) ?
A. no (0)
